# Test system: LEGO organoid PTN (PTEN-/-; TP53-/-; NF1-/-)
# measurement-protocol: bioluminescence (viable cell) signal fold change after vs before treatment, normalised to DMSO (ratio); higher = more tumour cell growth / less inhibition
# measurement-parameters: 10 µM; treatment time 6 days
bioluminescence by entry:
Enter a number only.

The following compounds have reported results that may help.
CNCCC(Oc1ccc(C(F)(F)F)cc1)c1ccccc1.Cl (stereo not drawn) [Fluoxetine hydrochloride]: 0.924
CCC1=CC2CN(C1)Cc1c([nH]c3ccccc13)[C@](C(=O)OC)(c1cc3c(cc1OC)N(C)[C@H]1[C@@](O)(C(=O)OC)[C@H](OC(C)=O)[C@]4(CC)C=CCN5CC[C@]31[C@@H]54)C2.O=C(O)[C@H](O)[C@@H](O)C(=O)O.O=C(O)[C@H](O)[C@@H](O)C(=O)O (stereo partly drawn) [Vinorelbine ditartrate]: 1.54

Request: Given O=C1NC(=O)C(c2ccccc2)(c2ccccc2)N1 , state its recorded bioluminescence.
Response: 1.39
